System: IGROV1 ovarian
Assay: NCI tumour cell line growth inhibition, 48 h
property: GI50

Task: Looking for the measured GI50 of Cn1c(=O)c(Cc2ccccc2F)cc2cnc(NC3CCOCC3)nc21 , can you help?
Result: > 25 µM

Task: Need GI50, item CC(=O)N[C@H]1CSSC[C@@H](C(N)=O)NC(=O)[C@H](C(C)C)NC(=O)[C@H](C)NC(=O)[C@H](Cc2cnc[nH]2)NC1=O
Result: > 100 µM

Task: Endpoint output: GI50 of CC1=C[C@H]2c3c(c(O)c(O)c4oc(-c5ccccc5)cc(=O)c34)[C@H](c3cc(O)c(O)c4oc(-c5ccccc5)cc(=O)c34)[C@H]2C(C)(C)C1 . Value?
Result: 0.486 µM

----------
Tested on: HL-60(TB) leukemia
Test: NCI tumour cell line growth inhibition, 48 h
What TGI was measured for each of the following?
Could you give me the number in µM? Just the number is fine.

Task: Please state recorded TGI (tested on HL-60(TB) leukemia) of C=C1C(=O)C=C[C@]2(C)CC[C@H]3C(=C)C(=O)O[C@@H]3[C@@H]12
Result: 14.4

Task: Could you share what TGI was measured for O=C(N/N=C/c1cc(Br)cc(Br)c1[O-])c1ccccc1O.O=C(N/N=C/c1cc(Br)cc(Br)c1[O-])c1ccccc1O.[Cu+2] , tested on HL-60(TB) leukemia?
Result: 0.359

Task: Form field - read-out: TGI; system: HL-60(TB) leukemia; submitted item: O=C1/C(=C/c2ccc(Cl)cc2)CSc2ccccc21
Result: 64.6

----------
What TGI was measured for each of the following?
Test system: LOX IMVI melanoma
Assay: NCI tumour cell line growth inhibition, 48 h

Task: Which value of TGI has been reported for ClCC[N+]12CC[N+](CCCl)(CC1)C2 in the records?
Result: > 100 µM

Task: Would you mind telling me what TGI value was observed for O=c1oc2ccc([N+](=O)[O-])cc2c(Nc2ccc3c(c2)Oc2ccccc2O3)c1[N+](=O)[O-] ?
Result: 94 µM

Task: Entry CCOc1ccc(/C=C2/C(=O)N=C(NC(C)=O)N2C)cc1 has what TGI?
Result: > 100 µM

Task: I have this compound here, CCC(=O)ONC(=O)Cn1ccc([N+](=O)[O-])n1 , and I need its recorded TGI.
Result: > 100 µM

Task: Given the compound Nc1nc(Cl)cc(NCC2(CO)CCCC2)n1 , what is its reported TGI?
Result: > 100 µM

Task: Using the record for CCOC(=O)c1ccc(C)c(N=NN(C)C)c1 , report its TGI.
Result: > 100 µM

----------
System: HL-60(TB) leukemia
Assay: NCI tumour cell line growth inhibition, 48 h
Classification field. Basis: TGI. Definitions: low: < 20 µM; medium: ≥ 20 µM and < 50 µM; high: ≥ 50 µM

Task: Given Cc1ccc2c(c1)C(=O)C1(C2)Cc2cccc(C)c2C1=O (stereo unspecified) , name the class its TGI places it in.
Result: high

Task: Form field 'band' for CC12CCC(O)CC1CCC1C2CCC2(C)C(C(=O)CC(O)C(F)(F)F)CCC12 (stereo unspecified)
Result: medium

Task: Please report the category associated with Cn1c2ccccc2c(=NNc2cccc(C(=O)O)c2)c2ccccc21 , nothing else.
Result: medium

Task: Which band does COc1ccc2c(c1)CCN1CCc3ccccc3CC21 (stereo unspecified) fall in?
Result: high

Task: Hi there! Could you help me figure out the category for O=C1NC2OC(C(O)CO)C(O)C2O1 (stereo unspecified) please?
Result: high

Task: Hey, which category is O=C(O)C1C(Br)(c2ccccc2)C1(Br)c1ccccc1 (stereo unspecified) in, do you know?
Result: high

Task: For the record CCCCN=C(c1ccccc1)N1CCOCC1 , report the class its TGI corresponds to.
Result: high

Task: State the class of the compound shown: O=C1c2ccccc2C2(c3ccc(Cl)cc3)N[C@H]3CCCC[C@@H]3N12 (stereo partly specified)
Result: high

Task: Tag the class for O=C1CSC(/C(=N/Nc2ccccc2)c2nc3ccccc3[nH]2)=N1
Result: high

Task: Please classify: CC1=C(O)C(=O)C=C2C1=CC=C1[C@@]2(C)CC[C@@]2(C)[C@@H]3C[C@](C)(C(=O)O)CC[C@]3(C)CC[C@]12C
Result: low

Task: Returns: class label. Input: CC(C)=CCNc1ncnc2c1ncn2CCC#N
Result: high

Task: Which category does the recorded TGI put Cc1ccc(O)c(-c2cscn2)c1 in?
Result: medium

Task: Would you mind sorting Cc1cc(C(C)(C)CC(C)(C)C)ccc1OCCOCC[N+](C)(C)Cc1ccccc1 into the appropriate category?
Result: low

Task: Lab note: which band did O=C(CCC1OCCO1)Nc1cc(NCc2ccccc2)ccc1OCc1ccccc1 land in?
Result: high

Task: Which class is correct for the following compound? C=CC/C=C/C/C=C/CCCCCCCc1cccc(O)c1C(=O)O
Result: high

Task: Class? Entry: O=C1[C@@H]2C(c3ccccc3F)=NO[C@@H]2C(=O)N1c1ccc(Cc2ccc(N3C(=O)[C@H]4C(c5ccccc5F)=NO[C@H]4C3=O)cc2)cc1
Result: medium

Task: Which bin, given its TGI, does O=C1/C(=C/c2cccc([N+](=O)[O-])c2)COc2ccc(Br)cc21 occupy?
Result: high

Task: Band for the recorded TGI of Nc1nc(F)nc2c1ncn2C1OC(CO)C(O)C1O (stereo unspecified) ?
Result: high

Task: Which class is correct for the following compound? CCSc1nc(SCC)c2cn[nH]c2n1
Result: high

Task: Please let me know in which category the item COc1ccc(/C=C/C(=O)C(CC2CCC2)C(=O)/C=C/c2ccc(OC)c(OC)c2)cc1OC belongs.
Result: low
